- Experimental Parameters: [M+Na]+; instrument: DT; stepped-field
Assay Endpoint: collision cross section (N2) (Å²)
State the answer as a number, implicitly in Å².

[
  {
    "Molecule": "CCCCCCCCCCCCC=CC[C@@H](O)[C@H](CO[C@@H]1O[C@H](CO)[C@@H](O)C(O)C1O)NC(=O)CCCCCCCCCCCCCCCCCCCCC (stereo partly specified)",
    "Readout Unit": "Å²",
    "collision cross section (N2)": 296.15
  },
  {
    "Molecule": "CCCCC/C=C\\C/C=C\\CCCCCCCC(=O)OC[C@H](COP(=O)(O)OCCN)OC(=O)CCCCCCC/C=C\\CCCCCCCCC",
    "Readout Unit": "Å²",
    "collision cross section (N2)": 280.15
  }
]

Record `CCCCCCCCCCCCC=CC[C@@H](O)[C@H](COP(=O)([O-])OCC[N+](C)(C)C)NC(=O)CCCCCCCCCCCCCCCC` , field collision cross section (N2): 280.61

Entry `CCCCCCCC/C=C\CCCCCCCCCCCC(=O)O[C@H](COC(=O)CCCCCCCCCCCCCCC)COP(=O)(O)OCCN` ; collision cross section (N2) = 285.93

collision cross section (N2) recorded for this molecule, `CCCCCCCCCCCCC=CC[C@@H](O)[C@H](COP(=O)([O-])OCC[N+](C)(C)C)NC(=O)CCCCCCCCCCCCCCCCCCC` , is 292.18

So, CCCCCCCCCCCCC=CC[C@@H](O)[C@H](CO[C@@H]1O[C@H](CO)[C@@H](O)C(O)C1O)NC(=O)CCCCCCCCCCCCCCCCCCC (stereo partly specified) ? Its collision cross section (N2) was 290.52
